system under test: HPV35 E6 phospho-PBM peptide p35E6 (human papillomavirus type 35)
protocol: FP
assay readout: Kd (µM)
Give the value in µM but do not write µM after it.

Worked examples, 3 binders total:
| binder | assay readout | endpoint result |
| --- | --- | --- |
| full-length human 14-3-3τ fused to the C terminus of MBP (natural protein) MEKTELIQKAKLAEQAERYDDMATCMKAVTEQGAELSNEERNLLSVAYKNVVGGRRSAWRVISSIEQKTDTSDKKLQLIKDYREKVESELRSICTTVLELLDKYLIANATNPESKVFYLKMKGDYFRYLAEVACGDDRKQTIDNSQGAYQEAFDISKKEMQPTHPIRLGLALNFSVFYYEILNNPELACTLAKTAFDEAIAELDTLNEDSYKDSTLIMQLLRDNLTLWTSDSAGEECDAAEGAEN | Kd | 233 |
| unfused 14-3-3τ devoid of the flexible C-terminal tail (domain or fragment) MEKTELIQKAKLAEQAERYDDMATCMKAVTEQGAELSNEERNLLSVAYKNVVGGRRSAWRVISSIEQKTDTSDKKLQLIKDYREKVESELRSICTTVLELLDKYLIANATNPESKVFYLKMKGDYFRYLAEVACGDDRKQTIDNSQGAYQEAFDISKKEMQPTHPIRLGLALNFSVFYYEILNNPELACTLAKTAFDEAIAELDTLNEDSYKDSTLIMQLLRDNLTLWT | Kd | 363 |
| full-length human 14-3-3γ fused to the C terminus of MBP (natural protein) MVDREQLVQKARLAEQAERYDDMAAAMKNVTELNEPLSNEERNLLSVAYKNVVGARRSSWRVISSIEQKTSADGNEKKIEMVRAYREKIEKELEAVCQDVLSLLDNYLIKNCSETQYESKVFYLKMKGDYYRYLAEVATGEKRATVVESSEKAYSEAHEISKEHMQPTHPIRLGLALNYSVFYYEIQNAPEQACHLAKTAFDDAIAELDTLNEDSYKDSTLIMQLLRDNLTLWTSDQQDDDGGEGNN | Kd | 125 |

stdin: If you can, please state the reported Kd value of full-length human 14-3-3η fused to the C terminus of MBP (natural protein) MGDREQLLQRARLAEQAERYDDMASAMKAVTELNEPLSNEDRNLLSVAYKNVVGARRSSWRVISSIEQKTMADGNEKKLEKVKAYREKIEKELETVCNDVLSLLDKFLIKNCNDFQYESKVFYLKMKGDYYRYLAEVASGEKKNSVVEASEAAYKEAFEISKEQMQPTHPIRLGLALNFSVFYYEIQNAPEQACLLAKQAFDDAIAELDTLNEDSYKDSTLIMQLLRDNLTLWTSDQQDEEAGEGN .
stdout: 163

// data source = paper PMC7961048
